Catalogue of compounds with associated max response
# Assay Explanation: Cycloheximide Counterscreen for Small Molecule Inhibitors of Shiga Toxin; further: read at 38.3 µM for the half of the compounds with a filed dose; 0% is about no effect
# Run Parameters: cell reporter, cycloheximide protein synthesis inhibition counterscreen; active compounds read high
Screen size: about 300,000 compounds; about 37,000 (12%) were called active. What follows is part of a selection rich in actives, with near analogues and random picks from the rest.
Report the value in % with no unit label.

// known answers, use as guide
| Compound | Numeric Readout |
| --- | --- |
| Cc1cc(C(=O)OCC(=O)Nc2nnc(C(C)C)s2)c2ccccc2n1 | -2.56 |
| CC(C)(C)c1ccc(OC2=CS(=O)(=O)c3ccccc32)cc1 | 81.1 |
| CC(C)CC(=O)NC(=S)NCc1ccccc1 | 3.76 |
| O=C(CSc1ccc(-c2ccc(Br)cc2)nn1)NCC1CCCO1 (stereo unspecified) | -3.31 |

max response reading for `CCC(=O)NCCc1nc2ccccc2n1CC` : -2.66

max response reading for `COc1ccc(CN2CCC(=O)c3ccccc3S2(=O)=O)cc1` : -4.16
